- assayed target: 26S proteasome CT-L activity in lysate of HT29 (constitutive) vs Sultan/Thp1 (immunoproteasome) cells (Homo sapiens, UniProt P28062+P28074)
- Construct: using 26S proteasome in the context of a cell lysate; endogenous in cells; host or cells: HT29 lysate (constitutive); Sultan or THP1 lysate (immunoproteasome)
- Sequence (P28074 60-263): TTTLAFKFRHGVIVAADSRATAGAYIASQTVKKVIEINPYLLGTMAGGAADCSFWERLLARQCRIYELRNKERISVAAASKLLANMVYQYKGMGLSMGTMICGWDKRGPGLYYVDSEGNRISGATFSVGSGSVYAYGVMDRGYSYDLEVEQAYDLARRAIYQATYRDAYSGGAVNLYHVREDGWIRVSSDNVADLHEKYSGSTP
- Sequence (P28062 73-276): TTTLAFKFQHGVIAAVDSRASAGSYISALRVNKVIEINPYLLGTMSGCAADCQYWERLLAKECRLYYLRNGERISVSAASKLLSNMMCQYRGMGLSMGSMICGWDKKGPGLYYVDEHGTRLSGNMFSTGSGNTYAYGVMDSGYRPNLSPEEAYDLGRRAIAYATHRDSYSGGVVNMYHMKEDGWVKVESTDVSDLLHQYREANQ
- assay procedure: CT-L EC50 with 26S proteasome in cell lysate (Lysate ratio)
- Type: biochemical
- condition set: HT29 lysate to Sultan/Thp1 lysate, >1 = prefers immunoproteasome
assay endpoint: Lysate ratio (HT29:Sultan/Thp1)

A selection of reference data follows.
CC(NC(=O)OCc1ccccc1)C(=O)N[C@@H](Cc1ccccc1)C(=O)N[C@@H](C)C(=O)C1(C)CO1 (stereo partly shown); <0.5
COc1ccc(NC(=O)NC(CC(C)C)C(=O)N[C@@H](Cc2ccccc2)C(=O)N[C@@H](CC(C)C)C(=O)C2(C)CO2)cc1 (stereo partly shown); <0.5
CC(NC(=O)OCc1ccccc1)C(=O)N[C@@H](Cc1csc2ccccc12)C(=O)N[C@@H](Cc1ccccc1)C(=O)C1(C)CO1 (stereo partly shown); >1.0
C[C@H](NC(=O)OCc1ccccc1)C(=O)N[C@@H](Cc1cn(C)c2ccccc12)C(=O)N[C@@H](Cc1ccccc1)C(=O)C1(C)CO1 (stereo partly shown); >1.0
CC(C)CC(NC(=O)OCc1ccccc1)C(=O)N[C@@H](CC(C)C)C(=O)N[C@@H](Cc1ccccc1)C(=O)C1(C)CO1 (stereo partly shown); <1.0
Cc1ccc(CCC(=O)N[C@@H](CC(C)C)C(=O)N[C@@H](Cc2ccccc2)C(=O)N[C@@H](CC(C)C)C(=O)C2(C)CO2)cc1 (stereo partly shown); <0.5

Proceed to the following item.
For C[C@H](NC(=O)OCc1ccccc1)C(=O)N[C@@H](Cc1ccc(C(F)(F)F)cc1)C(=O)N[C@@H](Cc1ccccc1)C(=O)C1(C)CO1 (stereo partly shown) , write its Lysate ratio (HT29:Sultan/Thp1).
>3.0
